- subjectOfTest: human PTH1 receptor (Homo sapiens)
- Sequence (Q03431 27-593): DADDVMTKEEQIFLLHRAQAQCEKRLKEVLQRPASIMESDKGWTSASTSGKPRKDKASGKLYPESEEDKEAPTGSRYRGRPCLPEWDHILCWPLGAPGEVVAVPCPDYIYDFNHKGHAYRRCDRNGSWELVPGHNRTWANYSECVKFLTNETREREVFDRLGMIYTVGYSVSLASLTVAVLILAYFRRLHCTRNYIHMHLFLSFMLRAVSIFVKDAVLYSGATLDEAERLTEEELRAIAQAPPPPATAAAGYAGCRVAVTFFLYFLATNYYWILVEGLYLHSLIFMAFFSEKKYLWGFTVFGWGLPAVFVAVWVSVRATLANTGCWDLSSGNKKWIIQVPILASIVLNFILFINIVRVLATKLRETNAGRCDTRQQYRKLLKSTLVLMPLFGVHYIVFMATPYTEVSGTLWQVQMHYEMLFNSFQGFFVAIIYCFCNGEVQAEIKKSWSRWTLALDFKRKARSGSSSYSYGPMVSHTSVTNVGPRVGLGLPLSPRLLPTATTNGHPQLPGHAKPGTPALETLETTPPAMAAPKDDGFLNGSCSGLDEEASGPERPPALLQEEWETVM
- assaySummary: In vitro cAMP signal activity in HKRK-B7 cells (LLC-PK1 cells overexpressing the human PTH1 receptor)
- Assay type: cell-based
- testConditions: HKRK-B7 cells; compound at 1×10^−3 M; cAMP produced as percentage of that produced by hPTH(1-34) at 100 nM
parameter: cAMP production activity (%)
Just the number please, in %, no unit attached.

Item under review: O=C1NC(C2CCC(CCC(F)(F)F)CC2)=NC12CCN(S(=O)(=O)CCc1cccc3c1ccn3C[C@@H](O)CO)CC2 (stereo partly shown) . Reported cAMP production activity (%)?
71

Name the reported cAMP production activity (%) value associated with the molecule CCCCC1CCC(C2=NC3(CCN(S(=O)(=O)CCc4ccc(N5C(=O)CNC5=O)cc4C)CC3)C(=O)N2)CC1 (stereo not shown)
68

Item under review: CC(=O)N(C)Cc1cc(C)c(/C=C/S(=O)(=O)N2CCC3(CC2)N=C(C2CCC(C)CC2)NC3=O)c(C)c1 (stereo not shown) . Reported cAMP production activity (%)?
58

Need cAMP production activity (%) of Cc1cc(C(=O)N2CCN(S(C)(=O)=O)CC2)ccc1CCS(=O)(=O)N1CCC2(CC1)N=C(c1cccc(C(F)(F)F)c1)NC2=O , thanks.
19

What does the data say about its cAMP production activity (%)? Entry: CNc1cc(C)c(CCS(=O)(=O)N2CCC3(CC2)N=C(CCCCCCCC(F)(F)C(F)(F)F)NC3=O)c(C)c1
77

Which cAMP production activity (%) reading was recorded for the molecule Cc1cc(Nc2nccs2)cc(C)c1/C=C/S(=O)(=O)N1CCC2(CC1)N=C(C1CCCCC1)NC2=O ?
35

Fill in: cAMP production activity (%) of Cc1cc(OC[C@H](O)CO)cc(C)c1CCS(=O)(=O)N1CCC2(CC1)N=C(c1ccc(F)c(OC(F)(F)F)c1)NC2=O is ___
85

Please look up its cAMP production activity (%): Cc1cc(N(C)C(N)=O)cc(C)c1/C=C/[S@TB4](=O)(=O)N1CCC2(CC1)N=C(CCCCCCCCCCCCCC(=O)O)NC2=O
29

Quick one: cAMP production activity (%) of Cc1cc2ccc1CCS(=O)(=O)N1CCC3(CC1)N=C(NC3=O)c1cc(cc(C(F)(F)F)c1)OCC/C=C/COCCN(CCO)C2=O ?
67

Given the molecule Cc1cc(N(C)C(N)=O)cc(C)c1CCS(=O)(=O)N1CCC2(CC1)N=C(CCCCCCc1ccccc1)NC2=O , what is its reported cAMP production activity (%)?
98

What measured cAMP production activity (%) goes with Cc1cc(C(=O)N(C)C)ccc1CCS(=O)(=O)N1CCC2(CC1)N=C(C1(C(F)(F)F)CCC1)NC2=O ?
50

GET /values?readout=cAMP production activity (%)&item= Cc1cc(N2C(=O)CNC2=O)ccc1CCS(=O)(=O)N1CCC2(CC1)N=C(C1CC(C)(C)CC(C)(C)C1)NC2=O
95

Give the measured cAMP production activity (%) of Cc1cc(C(=O)N2CCC(O)(CO)CC2)cc(C)c1CCS(=O)(=O)N1CCC2(CC1)N=C(c1cccc(OC(F)(F)F)c1)NC2=O .
4.7
